Consider the following compounds; for each one, report its MIC.
tested on: Candida tropicalis; assay: Tested for minimum inhibitory concentration against Candida tropicalis 43 (C.t) at pH of 4.5.; type: functional

Incoming: Which MIC is listed for CC[C@@H](C)[C@H]1C(=O)NCC(=O)N(C)[C@@H](C(C)C)C(=O)N[C@@H](Cc2ccc(OCc3ccccc3)cc2)C(=O)O[C@H](C)C(=O)N2CCCC[C@H]2C(=O)N(C)[C@@H](C(C)C)C(=O)N[C@@H](C(C)C)C(=O)N(C)[C@@H](CC(=O)O)C(=O)N(C)[C@@H]([C@@H](C)CC)C(=O)N1C ?
Outgoing: > 100 µg/mL

Incoming: Another compound to look at: CC[C@@H](C)[C@H]1C(=O)NCC(=O)N(C)[C@@H](C(C)C)C(=O)N[C@@H](Cc2ccc(OC)cc2)C(=O)O[C@H](C)C(=O)N2CCCC[C@H]2C(=O)N(C)[C@@H](C(C)C)C(=O)N[C@@H](C(C)C)C(=O)N(C)[C@@H](CC(=O)Nc2ccc(Br)cc2)C(=O)N(C)[C@@H]([C@@H](C)CC)C(=O)N1C
Outgoing: > 100 µg/mL

Incoming: Another compound to look at: CC[C@H](C)[C@H]1C(=O)NCC(=O)N(C)[C@@H](C(C)C)C(=O)N[C@@H](Cc2ccc(OC)cc2)C(=O)N[C@@H](C)C(=O)N[C@@H](C)C(=O)N2CCCC[C@H]2C(=O)N(C)[C@@H](C(C)C)C(=O)N[C@@H](C(C)C)C(=O)N(C)[C@@H](CC(=O)O)C(=O)N(C)[C@@H]([C@@H](C)CC)C(=O)N1C
Outgoing: > 100 µg/mL
